measured on: Importin-α FL (full-length Importin-α), recombinant (human, UniProt P52292 1-529)
test summary: ITC
pKd: −log10 of the molar value.

>  <binder>
AKKKLREYQQRNSPGVPTGAKKKKKIK [GM130-NLS WT peptide]

>  <pKd>
5.16

$$$$
